biological target: human serum albumin (HSA) (Homo sapiens, UniProt P02768); experiment: fluorescence polarization displacement of dansyl sarcosine; assay type: binding
Sequence (P02768 25-609): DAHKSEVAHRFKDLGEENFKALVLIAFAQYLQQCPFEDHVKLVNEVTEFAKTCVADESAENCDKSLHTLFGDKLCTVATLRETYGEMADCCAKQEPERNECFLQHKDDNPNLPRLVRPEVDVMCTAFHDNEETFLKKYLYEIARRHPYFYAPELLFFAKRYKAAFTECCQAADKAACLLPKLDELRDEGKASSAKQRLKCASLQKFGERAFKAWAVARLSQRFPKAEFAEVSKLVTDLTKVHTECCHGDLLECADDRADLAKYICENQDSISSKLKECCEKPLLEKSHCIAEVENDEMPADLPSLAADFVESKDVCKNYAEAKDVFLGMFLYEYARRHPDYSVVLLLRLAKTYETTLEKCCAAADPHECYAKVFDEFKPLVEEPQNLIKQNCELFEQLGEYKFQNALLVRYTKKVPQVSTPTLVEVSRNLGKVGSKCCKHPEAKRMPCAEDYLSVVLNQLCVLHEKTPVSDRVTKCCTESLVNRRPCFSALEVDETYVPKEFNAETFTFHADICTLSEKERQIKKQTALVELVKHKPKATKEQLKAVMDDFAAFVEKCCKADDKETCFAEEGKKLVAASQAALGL
pIC50: −log10 of the molar value.

{"MOLECULE": "CC1(C)CCC(c2ccc(Cl)cc2)=C(CN2CCN(c3ccc(C(=O)NS(=O)(=O)c4ccc(N[C@H](CCN5CCOCC5)CSc5ccccc5)c(S(=O)(=O)C(F)(F)F)c4)cc3)CC2)C1 [ABT-263]", "pIC50": 4.43}

The measured values listed here are drawn from paper PMC2921948.
